- TESTED_TARGET: T1, mouse NMUR1-CTG (mouse, UniProt O55040 1-428)
- T1 sequence (looked up): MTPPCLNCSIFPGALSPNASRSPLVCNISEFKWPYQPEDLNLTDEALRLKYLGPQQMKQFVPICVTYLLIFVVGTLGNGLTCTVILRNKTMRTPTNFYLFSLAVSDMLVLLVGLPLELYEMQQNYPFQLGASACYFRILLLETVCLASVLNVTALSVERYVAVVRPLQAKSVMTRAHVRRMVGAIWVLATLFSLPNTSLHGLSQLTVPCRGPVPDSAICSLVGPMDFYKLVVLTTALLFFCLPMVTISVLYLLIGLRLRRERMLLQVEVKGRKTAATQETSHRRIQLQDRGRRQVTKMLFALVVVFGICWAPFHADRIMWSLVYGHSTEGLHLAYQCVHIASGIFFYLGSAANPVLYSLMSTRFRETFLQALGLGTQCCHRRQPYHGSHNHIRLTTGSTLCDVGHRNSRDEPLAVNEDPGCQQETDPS
- EXPERIMENT: 125I-hNMU-25 displacement, cell membranes
pIC50: −log10 of the molar value. Non-standard residues stand in square brackets, D forms with d. No end group written: not given here.
MEASURED_ENDPOINT: pIC50

binder="FRVDEEFQSPFASQSRGYF[dL]WRPRN-NH2 (not fully specified) [neuromedin U receptor agonist H]" recorded_measurement=7.60
